Measured metric: Ki (nM)
// note: answer is a bare numeric in nM

Ask | # value lookup — system σ-1 receptor (Cavia porcellus, UniProt Q60492), readout Ki, item OCC(CCN1CCCCC1)c1ccc(-c2ccccc2)cc1 (stereo not shown)
Reply | 6.2
